src = DBAASP

- Test system: Candida albicans
recordedMetric: MIC (µM)
Only the number, expressed in µM, is required.

These solved cases illustrate the format of a correct answer.
molecule	readoutNumber
CC[C@H](C)[C@H](N)C(=O)N[C@@H](CC(C)C)C(=O)NCC(=O)N[C@H](C(=O)N[C@H](C(=O)N[C@@H](CC(C)C)C(=O)NCC(=O)N[C@@H](CC(C)C)C(=O)N[C@@H](CC(C)C)C(=O)N[C@@H](CCCCN)C(=O)N[C@@H](CO)C(=O)N[C@@H](CC(C)C)C(N)=O)[C@@H](C)CC)[C@@H](C)O [ILGTILGLLKSL]	22.6
CC(C)C[C@H](NC(=O)[C@H](CCCN=C(N)N)NC(=O)[C@H](CC(C)C)NC(=O)[C@H](CC(C)C)NC(=O)[C@H](CC(C)C)NC(=O)[C@H](CCCN=C(N)N)NC(=O)[C@H](CC(C)C)NC(=O)[C@@H](N)CCCN=C(N)N)C(=O)N[C@@H](CCCN=C(N)N)C(N)=O [RLRLLLRLR]	8
CC[C@H](C)[C@H](NC(=O)[C@@H](NC(=O)[C@H](Cc1c[nH]c2ccccc12)NC(=O)[C@@H](NC(=O)[C@@H](N)CCCCN)[C@@H](C)CC)C(C)C)C(=O)N[C@@H](CCCN=C(N)N)C(=O)N[C@@H](Cc1c[nH]c2ccccc12)C(=O)N[C@@H](CCCN=C(N)N)C(N)=O [KIWVIRWR]	13.8
NC(=O)[C@H](CCCN=C(N)N)NC(=O)[C@H](Cc1c[nH]c2ccccc12)NC(=O)[C@H](CCCN=C(N)N)NC(=O)[C@H](Cc1c[nH]c2ccccc12)NC(=O)[C@H](Cc1c[nH]c2ccccc12)NC(=O)[C@H](Cc1c[nH]c2ccccc12)NC(=O)[C@H](CCCN=C(N)N)NC(=O)[C@H](Cc1c[nH]c2ccccc12)NC(=O)[C@@H](N)CCCN=C(N)N [RWRWWWRWR]	2.83

Req: Form field - read-out: MIC; system: Candida albicans; submitted item: CC[C@H](C)[C@H](NC(=O)[C@H](CCCN=C(N)N)NC(=O)[C@@H](NC(=O)[C@H](Cc1c[nH]c2ccccc12)NC(=O)[C@H](Cc1c[nH]c2ccccc12)NC(=O)[C@@H](N)CCCN=C(N)N)[C@@H](C)CC)C(=O)N[C@@H](CCCN=C(N)N)C(=O)N[C@@H](Cc1c[nH]c2ccccc12)C(=O)N[C@@H](Cc1cnc[nH]1)C(=O)O [RWWIRIRWH]
Resp: 10.7

Req: Form field - read-out: MIC; system: Candida albicans; submitted item: NC(=O)[C@H](CCCN=C(N)N)NC(=O)[C@H](CCCN=C(N)N)NC(=O)[C@H](Cc1ccccc1)NC(=O)[C@H](CCCN=C(N)N)NC(=O)[C@H](Cc1ccccc1)NC(=O)[C@H](Cc1ccccc1)NC(=O)[C@H](Cc1ccccc1)NC(=O)[C@H](CCCN=C(N)N)NC(=O)[C@H](Cc1ccccc1)NC(=O)[C@H](CCCN=C(N)N)NC(=O)[C@@H](N)CCCN=C(N)N [RRFRFFFRFRR]
Resp: 2.83
